Target: UniProt:P35030
Assay: Competitive inhibition of recombinant human mesotrypsin using Z-GPR-MCA as substrate measured every 30 secs for 10 mins
pKi: −log10 of the molar value. Where a SMILES comes first, the peptide text is derived from it. Bridges are numbered along the chain shown (N, C = ends). [ ]: non-standard residue; d: D form. Bip = N[C@@H](Cc1ccc(-c2ccccc2)cc1)C(=O)O; 2Nal = N[C@@H](Cc1ccc2ccccc2c1)C(=O)O
Values of pKi greater than or equal to 7 map to Y; values below map to N.

compound: CC[C@H](C)[C@@H]1NC(=O)[C@@H]2CCCN2C(=O)[C@@H]2CCCN2C(=O)[C@H](CC(=O)O)NC(=O)[C@H](CO)NC(=O)[C@H](CCCCN)NC(=O)[C@H]([C@@H](C)O)NC(=O)[C@@H]2CSSC[C@H](NC1=O)C(=O)N[C@@H](Cc1ccccc1)C(=O)N1CCC[C@H]1C(=O)N[C@@H](CC(=O)O)C(=O)NCC(=O)N[C@@H](CCCNC(=N)N)C(=O)N2 (cyclo(CFPDGRCTKSDPPI); disulfide 1-7)
class assignment: N
--
compound: CC[C@H](C)[C@@H]1NC(=O)[C@@H]2CCCN2C(=O)[C@@H]2CCCN2C(=O)[C@H](Cc2ccccc2)NC(=O)[C@H](CO)NC(=O)[C@H](CCCCN)NC(=O)[C@H]([C@@H](C)O)NC(=O)[C@@H]2CSSC[C@H](NC1=O)C(=O)N[C@@H](Cc1ccccc1)C(=O)N1CCC[C@H]1C(=O)N[C@@H](CC(=O)O)C(=O)NCC(=O)N[C@@H](CCCNC(=N)N)C(=O)N2 (cyclo(CFPDGRCTKSFPPI); disulfide 1-7)
class assignment: Y
--
compound: CC[C@H](C)[C@@H]1NC(=O)[C@@H]2CCCN2C(=O)[C@@H]2CCCN2C(=O)[C@H](Cc2ccc3ccccc3c2)NC(=O)[C@H](CO)NC(=O)[C@H](CCCCN)NC(=O)[C@H]([C@@H](C)O)NC(=O)[C@@H]2CSSC[C@H](NC1=O)C(=O)N[C@@H](Cc1ccccc1)C(=O)N1CCC[C@H]1C(=O)N[C@@H](CC(=O)O)C(=O)NCC(=O)N[C@@H](CCCNC(=N)N)C(=O)N2 (cyclo([2Nal]PPICFPDGRCTKS); disulfide 5-11)
class assignment: Y
--
compound: CC[C@H](C)[C@@H]1NC(=O)[C@@H]2CCCN2C(=O)[C@@H]2CCCN2C(=O)[C@H](Cc2ccc(-c3ccccc3)cc2)NC(=O)[C@H](CO)NC(=O)[C@H](CCCNC(=N)N)NC(=O)[C@H]([C@@H](C)O)NC(=O)[C@@H]2CSSC[C@H](NC1=O)C(=O)N[C@@H](Cc1ccccc1)C(=O)N1CCC[C@H]1C(=O)N[C@@H](CC(=O)O)C(=O)NCC(=O)N[C@@H](CCCNC(=N)N)C(=O)N2 (cyclo([Bip]PPICFPDGRCTRS); disulfide 5-11)
class assignment: Y
--
compound: CC[C@H](C)[C@@H]1NC(=O)[C@@H]2CCCN2C(=O)[C@@H]2CCCN2C(=O)[C@H](Cc2ccc(-c3ccccc3)cc2)NC(=O)[C@H](CO)NC(=O)[C@H](CCCCN)NC(=O)[C@H]([C@@H](C)O)NC(=O)[C@@H]2CSSC[C@H](NC1=O)C(=O)N[C@@H](Cc1ccccc1)C(=O)N1CCC[C@H]1C(=O)N[C@@H](CC(=O)O)C(=O)NCC(=O)N[C@@H](CCCNC(=N)N)C(=O)N2 (cyclo([Bip]PPICFPDGRCTKS); disulfide 5-11)
class assignment: Y

* * *

Target: Serine protease 1 (Homo sapiens, UniProt P07477)
Sequence (P07477 whole entry): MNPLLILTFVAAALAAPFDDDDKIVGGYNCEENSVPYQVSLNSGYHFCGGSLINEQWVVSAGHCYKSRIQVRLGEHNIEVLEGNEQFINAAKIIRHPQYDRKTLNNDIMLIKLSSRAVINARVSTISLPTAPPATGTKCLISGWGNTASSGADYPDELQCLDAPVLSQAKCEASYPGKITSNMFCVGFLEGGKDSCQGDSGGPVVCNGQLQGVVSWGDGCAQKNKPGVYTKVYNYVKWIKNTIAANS
Where a SMILES comes first, the peptide text is derived from it. Bridges are numbered along the chain shown (N, C = ends). [ ]: non-standard residue; d: D form. Bip = N[C@@H](Cc1ccc(-c2ccccc2)cc1)C(=O)O; 2Nal = N[C@@H](Cc1ccc2ccccc2c1)C(=O)O

molecule: CC[C@H](C)[C@@H]1NC(=O)[C@@H]2CCCN2C(=O)[C@@H]2CCCN2C(=O)[C@H](Cc2ccc3ccccc3c2)NC(=O)[C@H](CO)NC(=O)[C@H](CCCNC(=N)N)NC(=O)[C@H]([C@@H](C)O)NC(=O)[C@@H]2CSSC[C@H](NC1=O)C(=O)N[C@@H](Cc1ccccc1)C(=O)N1CCC[C@H]1C(=O)N[C@@H](CC(=O)O)C(=O)NCC(=O)N[C@@H](CCCNC(=N)N)C(=O)N2 (cyclo([2Nal]PPICFPDGRCTRS); disulfide 5-11)
unit abbrev: nM
Ki: 2.6

molecule: CC[C@H](C)[C@@H]1NC(=O)[C@@H]2CCCN2C(=O)[C@@H]2CCCN2C(=O)[C@H](Cc2ccc(-c3ccccc3)cc2)NC(=O)[C@H](CO)NC(=O)[C@H](CCCCN)NC(=O)[C@H]([C@@H](C)O)NC(=O)[C@@H]2CSSC[C@H](NC1=O)C(=O)N[C@@H](Cc1ccccc1)C(=O)N1CCC[C@H]1C(=O)N[C@@H](CC(=O)O)C(=O)NCC(=O)N[C@@H](CCCNC(=N)N)C(=O)N2 (cyclo([Bip]PPICFPDGRCTKS); disulfide 5-11)
unit abbrev: nM
Ki: 0.76

molecule: CC[C@H](C)[C@@H]1NC(=O)[C@@H]2CCCN2C(=O)[C@@H]2CCCN2C(=O)[C@H]([C@@H](C)CC)NC(=O)[C@H](CO)NC(=O)[C@H](CCCCN)NC(=O)[C@H]([C@@H](C)O)NC(=O)[C@@H]2CSSC[C@H](NC1=O)C(=O)N[C@@H](Cc1ccccc1)C(=O)N1CCC[C@H]1C(=O)N[C@@H](CC(=O)O)C(=O)NCC(=O)N[C@@H](CCCNC(=N)N)C(=O)N2
unit abbrev: nM
Ki: 0.03

molecule: CC[C@H](C)[C@@H]1NC(=O)[C@@H]2CCCN2C(=O)[C@@H]2CCCN2C(=O)CNC(=O)[C@H](CO)NC(=O)[C@H](CCCCN)NC(=O)[C@H]([C@@H](C)O)NC(=O)[C@@H]2CSSC[C@H](NC1=O)C(=O)N[C@@H](Cc1ccccc1)C(=O)N1CCC[C@H]1C(=O)N[C@@H](CC(=O)O)C(=O)NCC(=O)N[C@@H](CCCNC(=N)N)C(=O)N2 (cyclo(CFPDGRCTKSGPPI); disulfide 1-7)
unit abbrev: nM
Ki: 49

molecule: CC[C@H](C)[C@@H]1NC(=O)[C@@H]2CCCN2C(=O)[C@@H]2CCCN2C(=O)[C@H](Cc2ccc(-c3ccccc3)cc2)NC(=O)[C@H](CO)NC(=O)[C@H](CCCNC(=N)N)NC(=O)[C@H]([C@@H](C)O)NC(=O)[C@@H]2CSSC[C@H](NC1=O)C(=O)N[C@@H](Cc1ccccc1)C(=O)N1CCC[C@H]1C(=O)N[C@@H](CC(=O)O)C(=O)NCC(=O)N[C@@H](CCCNC(=N)N)C(=O)N2 (cyclo([Bip]PPICFPDGRCTRS); disulfide 5-11)
unit abbrev: nM
Ki: 1.9

* * *

Recorded pKi by entry
Target: Trypsin-3 (Homo sapiens, UniProt P35030)
Experiment: Competitive inhibition of recombinant human mesotrypsin using Z-GPR-MCA as substrate measured every 30 secs for 10 mins
pKi: −log10 of the molar value. Where a SMILES comes first, the peptide text is derived from it. Bridges are numbered along the chain shown (N, C = ends). [ ]: non-standard residue; d: D form. 2Nal = N[C@@H](Cc1ccc2ccccc2c1)C(=O)O
quantity: pKi

molecule: CC[C@H](C)[C@@H]1NC(=O)[C@@H]2CCCN2C(=O)[C@@H]2CCCN2C(=O)[C@H](Cc2ccc3ccccc3c2)NC(=O)[C@H](CO)NC(=O)[C@H](CCCNC(=N)N)NC(=O)[C@H]([C@@H](C)O)NC(=O)[C@@H]2CSSC[C@H](NC1=O)C(=O)N[C@@H](Cc1ccccc1)C(=O)N1CCC[C@H]1C(=O)N[C@@H](CC(=O)O)C(=O)NCC(=O)N[C@@H](CCCNC(=N)N)C(=O)N2 (cyclo([2Nal]PPICFPDGRCTRS); disulfide 5-11)
measured: 7.42

molecule: CC[C@H](C)[C@@H]1NC(=O)[C@@H]2CCCN2C(=O)[C@@H]2CCCN2C(=O)CNC(=O)[C@H](CO)NC(=O)[C@H](CCCNC(=N)N)NC(=O)[C@H]([C@@H](C)O)NC(=O)[C@@H]2CSSC[C@H](NC1=O)C(=O)N[C@@H](Cc1ccccc1)C(=O)N1CCC[C@H]1C(=O)N[C@@H](CC(=O)O)C(=O)NCC(=O)N[C@@H](CCCNC(=N)N)C(=O)N2 (cyclo(CFPDGRCTRSGPPI); disulfide 1-7)
measured: 6.43

* * *

Target: Trypsin-3 (Homo sapiens, UniProt P35030)
Sequence (P35030 whole entry): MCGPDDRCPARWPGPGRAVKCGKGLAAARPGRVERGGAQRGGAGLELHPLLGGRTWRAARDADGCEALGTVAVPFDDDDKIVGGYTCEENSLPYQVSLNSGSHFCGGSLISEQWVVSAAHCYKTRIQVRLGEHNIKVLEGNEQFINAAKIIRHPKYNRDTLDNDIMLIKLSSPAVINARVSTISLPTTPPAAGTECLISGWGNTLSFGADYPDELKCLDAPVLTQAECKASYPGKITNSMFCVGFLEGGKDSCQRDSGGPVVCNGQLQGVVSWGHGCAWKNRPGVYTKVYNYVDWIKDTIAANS
Test: Competitive inhibition of recombinant human mesotrypsin using Z-GPR-MCA as substrate measured every 30 secs for 10 mins
Where a SMILES comes first, the peptide text is derived from it. Bridges are numbered along the chain shown (N, C = ends).

compound: CC[C@H](C)[C@@H]1NC(=O)[C@@H]2CCCN2C(=O)[C@@H]2CCCN2C(=O)[C@H](CO)NC(=O)[C@H](CO)NC(=O)[C@H](CCCCN)NC(=O)[C@H]([C@@H](C)O)NC(=O)[C@@H]2CSSC[C@H](NC1=O)C(=O)N[C@@H](Cc1ccccc1)C(=O)N1CCC[C@H]1C(=O)N[C@@H](CC(=O)O)C(=O)NCC(=O)N[C@@H](CCCNC(=N)N)C(=O)N2 (cyclo(CFPDGRCTKSSPPI); disulfide 1-7)
unit abbrev: nM
Ki: 335
